B1: Adenylate kinase, P16304 (parent)
chain: MNLVLMGLPGAGKGTQGERIVEDYGIPHISTGDMFRAAMKEETPLGLEAKSYIDKGELVPDEVTIGIVKERLGKDDCERGFLLDGFPRTVAQAEALEEILEEYGKPIDYVINIEVDKDVLMERLTGRRICSVCGTTYHLVFNPPKTPGICDKDGGELYQRADDNEETVSKRLEVNMKQTQPLLDFYSEKGYLANVNGQQDIQDVYADVKDLLGGLKK

# Variants of: B1
# assay.setup: Bacillus subtilis (strain 168); pH 7; 20 °C; GdnHCl; CD; Phosphate buffer 10mM; transition: 2; reversible: yes; structure 2EU8; whole UniProt chain shown
Values of unfolding free energy strictly less than 6 kcal/mol map to YES, and values of at least 6 kcal/mol map to NO.

The examples below pair each entry with its known result.
mutation.name | class
Q199R Q16L | NO
Q199R G213E | YES
Q199R A193V | NO
Q199R T179I | YES

Attention now shifts to the item below.
Query block: Below 6 kcal/mol on unfolding free energy? Entry Q199R
Result block: YES
